Parameter: fraction of imaged embryos annotated as normal kidney. Scope: all listed entries.
Tested on: Danio rerio Tg(wt1b:EGFP) embryo, pronephros
method-description: fraction of imaged embryos annotated as normal kidney; higher = less nephrotoxic; extreme values may be limits of the assay
assay-setup: 25 µM; exposure: 24-48 hpf
Structures can show the parent of a compound that is named as a salt.

In the examples that follow, each entry is paired with its recorded fraction of imaged embryos annotated as normal kidney.
| compound | reported-measurement |
| --- | --- |
| CN1CCC(=C2c3ccccc3CCc3cccnc32)CC1 [Azatadine maleate] | 1 |
| CC(C)NC[C@@H](O)COc1cccc2ccccc12 [(R)-Propranolol hydrochloride] | 0.833 |
| CC1(C)S[C@@H]2[C@H](NC(=O)[C@H](N)c3ccccc3)C(=O)N2[C@H]1C(=O)O [Ampicillin trihydrate] | 0.917 |

Please examine the following record next.
Prompt: Requested read-out: fraction of imaged embryos annotated as normal kidney. Entry: `O=c1[nH]c(=O)n([C@H]2C[C@H](O)[C@@H](CO)O2)cc1C(F)(F)F`
Response: 0.917
